For each record, write down the corresponding Mean Florescence Intensity (MFI).
TARGET_OR_SYSTEM: T1, human beta klotho expressed on cells (human, UniProt Q86Z14 1-1044)
T1 construct: also called HuKLB overexpressing cells; Human KLB
T1 sequence: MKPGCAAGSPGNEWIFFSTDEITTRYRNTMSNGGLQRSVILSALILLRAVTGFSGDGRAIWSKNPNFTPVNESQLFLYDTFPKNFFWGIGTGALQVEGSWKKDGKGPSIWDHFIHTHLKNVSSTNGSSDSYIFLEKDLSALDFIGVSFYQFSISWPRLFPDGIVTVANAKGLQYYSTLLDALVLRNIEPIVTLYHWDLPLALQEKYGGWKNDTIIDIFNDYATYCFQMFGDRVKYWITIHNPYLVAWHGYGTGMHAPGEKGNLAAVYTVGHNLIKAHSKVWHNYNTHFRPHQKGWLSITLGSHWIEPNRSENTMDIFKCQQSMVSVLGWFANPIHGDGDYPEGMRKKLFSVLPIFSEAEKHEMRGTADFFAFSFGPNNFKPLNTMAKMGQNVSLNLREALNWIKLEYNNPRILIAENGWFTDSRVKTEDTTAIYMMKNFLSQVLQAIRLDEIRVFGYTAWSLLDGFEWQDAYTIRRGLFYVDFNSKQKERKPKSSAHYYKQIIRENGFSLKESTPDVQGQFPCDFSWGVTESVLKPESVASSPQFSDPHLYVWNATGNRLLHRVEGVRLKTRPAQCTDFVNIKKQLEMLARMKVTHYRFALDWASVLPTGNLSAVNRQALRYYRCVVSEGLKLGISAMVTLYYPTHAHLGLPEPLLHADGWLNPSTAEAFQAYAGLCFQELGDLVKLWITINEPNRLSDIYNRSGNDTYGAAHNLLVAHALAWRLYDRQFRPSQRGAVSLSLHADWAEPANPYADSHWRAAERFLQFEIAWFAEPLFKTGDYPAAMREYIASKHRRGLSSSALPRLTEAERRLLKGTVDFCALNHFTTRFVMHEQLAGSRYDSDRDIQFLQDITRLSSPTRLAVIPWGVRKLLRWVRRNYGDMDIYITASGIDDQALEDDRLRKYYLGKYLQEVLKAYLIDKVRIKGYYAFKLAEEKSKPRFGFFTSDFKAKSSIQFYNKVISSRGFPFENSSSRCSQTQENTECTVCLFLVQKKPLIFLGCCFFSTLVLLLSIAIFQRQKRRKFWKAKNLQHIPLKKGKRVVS
TEST_PROTOCOL: FACS competition on HuKLB-overexpressing cells; row antibody unlabelled; competitor 5H23-Alexa647 (labelled, EC10); MFI of the label
Express it in MFI; write the number only.

Which Mean Florescence Intensity (MFI) is reported for this binder? antibody 3L3 (antibody, V domains shown, Murine monoclonal antibody) VH: QVQPQESGPELVKPGTLVKISCKASGYTFTSYDINWVKQRPGQGLEWIGWIYPGDGSPKYDEKFKGKATLTADKSSSTAYMQLSSLTSENSAVYFCARSDYYGSRSFVYWGQGTLVTVSA VL: DIVLTQSPASLAVSLGQRATISCRASKSVSTSGYSYVHWYQQKPGQPPKLLIYLASNLESGVPARFSGRGSGTDFTLNIHPVEEEDAATYYCQHSGELPYTFGGGTKLEIK 4.2

Same for antibody 5F7 (antibody, V domains shown, Murine monoclonal antibody) VH: QVQPQESGPELVKPGALVKISCKASGYTFTRYDINWVKQRPGQGLEWIGWIYPGDISTKYNEKFKGKATLTADKSSSTAYMQLNSLTSENSAVYFCARSDYYGSRSFVYWGQGTLVTVSA VL: DIVLTQSPASLAVSLGQRATISCRASKSVSTSGYSYMHWYQQKPGQPPKLLIYLASNLESGVPARFSGSGSGTDFTLNIHPVEEEDAATYYCQHSRELPYTFGGGTKVEIK 2.3

Same for antibody 1G19 (antibody, V domains shown, Murine monoclonal antibody) VH: QVQLQESGPGLVKPSQSLSLTCSVTGYSITSGYYWNWIRQFPGNKLEWMGYINYGGSNNYNPSLKNRISITRDTSKNQFFLKLTSVTTEDTATYYCARRGAYYSNYDSFDVWGTGTTVTVSS VL: DIKMTQSPSSMYASLGERVTITCKASQDINSYLSWFQQKPGKSPKTLIYRANRLVDGVPSRFSGSGSGQDYSLTISSLEYEEMGIYYCLQYDEFPYTFGGGTKLEIK 2.2

Same for antibody 2L12 (antibody, V domains shown, Murine monoclonal antibody) VH: QVQLQQSGPELVKPGALVKISCKASGYTFTRYDINWVKKRPGQGLEWIGWIYPGDDSTKYNEKFKGKATLTADKSSSTAYMQLSSLTSENSAVYFCARSDYYGSRSFVYWGQGTLVTVSA VL: DIVLTQSPASLPVSLGQRATISCRASKSVSTSGYSYLHWYQQKPGQPPKLLIYLASNLESGVPARFSGSGSGTDFTLNIHPVEEEDAATYYCQHSGELPYTFGGGTKLEIK 3.1

Cited source: patent US20210030857A1
